# TARGET_OF_ASSAY: T1, human EphA7 (Homo sapiens, UniProt Q15375)
# T1 construct: a protein of the extracellular region of each human Eph receptor fused with the SEAP protein and the His tag; made in house; host or cells: Expi293F cells (culture supernatant)
# T1 sequence (Q15375 28-555 limits assumed): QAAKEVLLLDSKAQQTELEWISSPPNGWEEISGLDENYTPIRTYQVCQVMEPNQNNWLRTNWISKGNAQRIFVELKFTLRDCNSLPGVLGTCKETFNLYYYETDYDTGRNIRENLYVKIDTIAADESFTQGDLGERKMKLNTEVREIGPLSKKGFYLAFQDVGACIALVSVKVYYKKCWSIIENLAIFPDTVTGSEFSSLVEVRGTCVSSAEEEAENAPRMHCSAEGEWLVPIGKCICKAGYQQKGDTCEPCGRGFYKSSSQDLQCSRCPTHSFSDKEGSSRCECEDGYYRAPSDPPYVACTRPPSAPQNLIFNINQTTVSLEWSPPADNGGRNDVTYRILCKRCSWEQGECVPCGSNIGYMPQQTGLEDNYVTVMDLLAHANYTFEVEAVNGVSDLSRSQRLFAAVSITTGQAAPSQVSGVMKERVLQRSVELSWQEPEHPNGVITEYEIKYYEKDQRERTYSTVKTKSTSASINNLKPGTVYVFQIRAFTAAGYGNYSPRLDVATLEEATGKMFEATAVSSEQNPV
# EXPERIMENT_DESCRIPTION: Selectivity ELISA of humanized antibodies for human Eph receptor
# Assay type: binding
# CONDITION_CONTEXT: coated protein 1 nM
// values below are reported hEphA7-SEAP-: absorbance at 450 nm, percentage with respect to hEphA4-SEAP-His as 100%
Please state the figure in %; there is no need to write the unit.

q: For 87 (antibody, V domains shown, constant regions without entry; synthetic humanized antibody light chain variable region sequence; synthetic humanized antibody heavy chain variable region sequence) VL: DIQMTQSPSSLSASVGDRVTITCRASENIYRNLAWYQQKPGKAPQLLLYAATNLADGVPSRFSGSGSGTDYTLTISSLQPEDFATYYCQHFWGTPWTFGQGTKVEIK VH: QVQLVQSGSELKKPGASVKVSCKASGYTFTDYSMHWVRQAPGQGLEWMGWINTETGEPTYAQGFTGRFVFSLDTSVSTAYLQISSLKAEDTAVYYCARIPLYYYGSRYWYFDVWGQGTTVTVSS , write its hEphA7-SEAP-: absorbance at 450 nm, percentage with respect to hEphA4-SEAP-His as 100%.
a: 5.3

q: For 85 (antibody, V domains shown, constant regions without entry; synthetic humanized antibody light chain variable region sequence; synthetic humanized antibody heavy chain variable region sequence) VL: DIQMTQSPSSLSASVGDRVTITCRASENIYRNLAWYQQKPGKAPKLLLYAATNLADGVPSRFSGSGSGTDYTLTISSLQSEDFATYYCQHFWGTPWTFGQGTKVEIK VH: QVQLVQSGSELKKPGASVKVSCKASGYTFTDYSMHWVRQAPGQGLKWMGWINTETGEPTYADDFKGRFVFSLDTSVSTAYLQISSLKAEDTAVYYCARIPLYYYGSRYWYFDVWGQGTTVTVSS , write its hEphA7-SEAP-: absorbance at 450 nm, percentage with respect to hEphA4-SEAP-His as 100%.
a: 4.8
